system: AA8 cells; test: Cytotoxicity in wild type AA8 cells, 2 h treatment, alamar blue (Table 8); assay type: cell-based, chinese hamster; conditions: Cricetulus griseus, CHO-AA8, air, read-out: IC50 (μM) Air
measured-metric: IC50
Param answer (str): number followed by unit.

Enquiry: Fill in: IC50 of Cn1c(COP(=O)(NCCBr)NCCBr)cnc1[N+](=O)[O-] is ___
Return: 340 µM

====

The following molecules are listed with their measured IC50 values.
system: AA8; assay: Cytotoxicity in AA8 cells (Table 7); format: cell-based, chinese hamster; settings: Cricetulus griseus, CHO-AA8, read-out: IC50 (μM) Anoxia AA8
Lab book: enter the figure in µM, no units written.

Cn1c(COP(=O)(NCCBr)NCCBr)cnc1[N+](=O)[O-] [TH-302] = 10

Continue with the molecule presented below.
Enquiry: Enter reported IC50 observed with AA8 for Nc1n[n+]([O-])c2ccccc2[n+]1[O-] [Tirapazamine, tirapazamine]
Return: 50
